METHOD SUMMARY: qHTS RealTime-Glo MT Cell Viability Assay in HEK293 cells - 8 hour (AID 1224887); also: nearly all actives have a fitted effect of over 50% in size
STUDY CONDITIONS: RealTime-Glo luminescence; series mostly up to 76.8 µM
From the text: U.S. Tox21 Program National Center for Advancing Translational Sciences [NCATS] NIH Chemical Genomics Center [NCGC] U.S. Environmental Protection Agency [EPA] National Institutes of Environmental Health Sciences [NIEHS] National Toxicology Program [NTP] U.S. Food and Drug Administration [FDA] Tox21 Assay Overview: Measure of cell viability is critical in the cell-base assay. Analysis of cell viability is necessary for the characterization of cell responses to cytotoxic drugs and environmental stress. […]
Inconclusive results are not listed. Activity calls are given as the source filed them. Calls follow the shape of the dose curve; as a rule, active = well fitted cell-killing curve with a large enough effect in the repeat runs; inconclusive = weak or mixed curves, or effect the other way; inactive = flat fitted curve, though single readings scatter.
Possible outcomes: active, inactive

>>> class_label("Cc1ccc2sc3cccc(C)c3c2c1")
"inactive"
>>> class_label("Nc1ccc(Cl)c([N+](=O)[O-])c1")
"inactive"
>>> class_label("C=CC(=O)OCC(Br)CBr (stereo not given)")
"inactive"
>>> class_label("[Cl][Sc]([Cl])[Cl]")
"inactive"
>>> class_label("NC(=O)c1ccccc1Cl")
"inactive"
>>> class_label("CCCC(C)C=O (stereo not given)")
"inactive"
>>> class_label("Cc1ccc(S(=O)(=O)C(I)I)cc1")
"active"
>>> class_label("CCN(CC)c1ccc(C=O)c(O)c1")
"inactive"
>>> class_label("Cc1c[nH]c(=O)[nH]c1=O")
"inactive"
>>> class_label("CCCC(=O)c1cc(O)c(O)cc1O")
"inactive"
>>> class_label("CCNc1nc(NC(C)(C)C)nc(OC)n1")
"inactive"
>>> class_label("Cc1cc(Br)ccc1NC(=O)CCl")
"active"
>>> class_label("Clc1cccc(Cl)n1")
"inactive"
>>> class_label("CC(C=O)c1ccccc1 (stereo not given)")
"inactive"
>>> class_label("CC(Cc1ccc(O)c(O)c1)C(C)Cc1ccc(O)c(O)c1 (stereo not given)")
"active"
>>> class_label("CCCCCCCCCC[N+](C)(CCCCCCCCCC)CCC[Si](OC)(OC)OC")
"active"
>>> class_label("CCOC(=O)[C@H](C)O")
"inactive"
>>> class_label("CSc1nnc(C(C)(C)C)c(=O)[nH]1")
"inactive"
>>> class_label("COc1cc(/C=C/C(=O)CC(=O)/C=C/c2ccc(O)c(OC)c2)ccc1O")
"active"
>>> class_label("Nc1cccnc1N")
"inactive"
>>> class_label("CC(C)C(=O)C(C)C")
"inactive"
>>> class_label("CN1CC[C@H](c2c(O)cc(O)c3c(=O)cc(-c4ccccc4Cl)oc23)[C@H](O)C1")
"inactive"
>>> class_label("Nc1ccc(Oc2cccc(Oc3ccc(N)cc3)c2)cc1")
"inactive"
>>> class_label("CCSCC")
"inactive"
>>> class_label("O=C(CCN1CCC(c2ccccc2)C1)c1ccc2c(c1)OCCO2 (stereo not given)")
"inactive"
>>> class_label("CC(=O)CC(N)=O")
"inactive"
>>> class_label("c1ccc2cc3c4ccccc4c4ccccc4c3cc2c1")
"inactive"
>>> class_label("COc1cc(OC)nc(NC(=O)NS(=O)(=O)Nc2ccccc2C(=O)N(C)C)n1")
"inactive"
>>> class_label("Cc1cc(C)c(O)c(C(C)(C)C)c1")
"inactive"
>>> class_label("C=C1CC[C@H]2O[C@]2(C)CC[C@@H]2[C@@H]1CC2(C)C")
"active"
